Experimental target: T1, recombinant human HER2 extracellular domain protein (human, UniProt P04626 23-652)
T1 construct: range 23-652; Range is printed for the immunogen/panning protein; also called ErbB2; recombinant HER2 protein
Measurement description: BLI (ForteBio)
Value type: kon (M⁻¹ s⁻¹)
One number for each entry, in M⁻¹ s⁻¹.

Past entries and their recorded results:
| Binder | Units text | kon |
| --- | --- | --- |
| Mu2117HK (Fc fusion, scFv-hIgG1 Fc fusion of mAb2117 V regions, VH-(G4S)3-VL; also called chimeric single-chain antibody control; not shown: human IgG1 Fc) scFv: EVKIEESGGGLVKPGGSLKLSCAASGFTYSSYGMSWVRQTPEKRLEWVASISGGGSYTKYPDSVKGRFTISRDNAKNHLYLQMSSLRSEDTALYYCARDYAGFFDVWGAGTTVTVSSGGGGSGGGGSGGGGSDVVLTQTPLSLPVSLGDQASISCRSSQSLVHSNGNTYLHWYLQKPGQSPKLLIYKVSNRFSGVPDRFSGSGSGTDFTLKISRVEAEDLGVYFCSQSTHVPYTFGGGTKLEIK | M⁻¹ s⁻¹ | 68800 |
| Mu2117KH (Fc fusion, scFv-hIgG1 Fc fusion of mAb2117 V regions, VL-(G4S)3-VH; also called chimeric single-chain antibody control; not shown: human IgG1 Fc) scFv: DVVLTQTPLSLPVSLGDQASISCRSSQSLVHSNGNTYLHWYLQKPGQSPKLLIYKVSNRFSGVPDRFSGSGSGTDFTLKISRVEAEDLGVYFCSQSTHVPYTFGGGTKLEIKGGGGSGGGGSGGGGSEVKIEESGGGLVKPGGSLKLSCAASGFTYSSYGMSWVRQTPEKRLEWVASISGGGSYTKYPDSVKGRFTISRDNAKNHLYLQMSSLRSEDTALYYCARDYAGFFDVWGAGTTVTVSS | M⁻¹ s⁻¹ | 70600 |

Entry Hu2117KH (Fc fusion, not shown: human IgG1 Fc) scFv: DIQMTQSPSSLSASVGDRVTITCRSSQSLVHSNGNTYLHWYQQKPGKAPKLLIYKVSNRFSGVPSRFSGSGSGTDFTLTISSLQPEDFATYFCSQSTHVPYTFGQGTKVEIKGGGGSGGGGSGGGGSEVQLVESGGGLVQPGGSLRLSCAASGFTYSSYGMSWVRQAPGKGLEWVASISGGGSYTKYPDSVKGRFTISRDNSKNTLYLQMNSLRAEDTAVYYCARDYAGFFDVWGQGTLVTVSS , kon reported as 25900
